Measured values drawn from patent US8815950B2 for this set.

testName: Solubility of levodopa in citrate buffer at varying pH and buffer strength
Type: physicochemical
conditionSummary: pH 2.5, aqueous buffer, Citrate buffer 1.0M pH 2.5, read-out: Conc (levodopa solubility)
experimentalReadout: solubility

*Q* Requested read-out: solubility. Entry: N[C@@H](Cc1ccc(O)c(O)c1)C(=O)O [Levodopa]
*A* 7430 µg/mL

---

testName: Solubility of levodopa in citrate buffer at varying pH and buffer strength
Type: physicochemical
conditionSummary: pH 3, aqueous buffer, Citrate buffer 1.0M pH 3.0, read-out: Conc (levodopa solubility)
experimentalReadout: solubility (µg/mL)
Answers are plain numbers, in µg/mL.

*Q* Requested read-out: solubility. Entry: `N[C@@H](Cc1ccc(O)c(O)c1)C(=O)O`
*A* 5930
